System: Trichomonas vaginalis
test-details: Ratio of MIC for metronidazole to compound for metronidazole-resistant Trichomonas vaginalis ATCC 50143
Format: functional
Measured Ratio, listed per entry for reference.
value-kind: Ratio

> print(dat)
                                   compound  recorded.measurement
1  Cc1ncc([N+](=O)[O-])n1CCSC(=S)N1CCCCC1C (stereo not given)                    10
2  Cc1ncc([N+](=O)[O-])n1CCSC(=S)N1CCC(C)CC1                    20
3  Cc1ncc([N+](=O)[O-])n1CCSC(=S)N1CCCC(C)C1 (stereo not given)                    10
4  CCC1CCCCN1C(=S)SCCn1c([N+](=O)[O-])cnc1C (stereo not given)                    10
5  Cc1ncc([N+](=O)[O-])n1CCSC(=S)N1C(C)CCCC1C (stereo not given)                    10
